# Test system: Nucleic Acid
# method description: Binding affinity to human G4 telomeric quadruplex DNA assessed as change in melting temperature at 2 uM by FRET melting assay
# Type: nucleic-acid assay
measurement label: ΔTm (°C)

Examples with their reported ΔTm follow.
CC(C)N(Cc1ccc(-c2ncc(-c3cccc(-c4cnc(-c5ccc(CN(C(C)C)C(C)C)cc5)o4)c3)o2)cc1)C(C)C	2
CN1CCN(Cc2ccc(-c3ncc(-c4cccc(-c5cnc(-c6ccc(CN7CCN(C)CC7)cc6)o5)c4)o3)cc2)CC1	2

a: CN1CCN(CCc2ccc(-c3ncc(-c4cccc(-c5cnc(-c6ccc(CCN7CCN(C)CC7)cc6)o5)c4)o3)cc2)CC1
b: c1cc(-c2cnc(-c3ccc(OCCCCN4CCCC4)cc3)o2)cc(-c2cnc(-c3ccc(OCCCCN4CCCC4)cc3)o2)c1
Consider a and b . Which of these has its ΔTm at a higher number? Record your answer as the label of the chosen record.
b
(b: 15 °C, a: 2 °C)
